tested on: B. pumilus; experiment: Broth dilution MIC/MBC; format: cell-based, Bacillus pumilus
observable: MBC/ MIC ratio B. pumilus

Inquiry: Give MBC/ MIC ratio B. pumilus (B. pumilus) of the following compound: Cc1c(C(N)=S)c(N)n(N)c(=O)c1C#N
Reply text: 2

Inquiry: Report MBC/ MIC ratio B. pumilus for CC(=O)Oc1ccc(-c2c(C(N)=O)c(N)n(N)c(=O)c2C#N)cc1 tested on B. pumilus.
Reply text: 2

Inquiry: Short answer please: MBC/ MIC ratio B. pumilus, B. pumilus, entry Cc1c(C(N)=O)c(N)n(N)c(=O)c1C#N
Reply text: 4

Inquiry: Request - read-out MBC/ MIC ratio B. pumilus | tested on B. pumilus | compound N#Cc1c(-c2ccc(OCc3ccccc3)cc2)c(C(N)=S)c(N)n(N)c1=O
Reply text: 4

Inquiry: Request: MBC/ MIC ratio B. pumilus, test system B. pumilus, entry CC1(C)S[C@@H]2[C@H](NC(=O)Cc3ccccc3)C(=O)N2[C@H]1C(=O)O [Pen. G, Penicillin G, reference compound]
Reply text: 2

====

Could you please report measured MIC for the items listed next?
test system: C. albicans; test: Broth dilution MIC/MFC; type: cell-based, Candida albicans; settings: Candida albicans, read-out: MIC C. albicans, broth dilution

Inquiry: Can you look up the measured MIC of Cc1c(C(N)=S)c(N)n(N)c(=O)c1C#N [Compound 4a] for me?
Reply text: 31.3 µg/mL

Inquiry: // lookup MIC for CN(C)c1ccc(-c2c(C(N)=S)c(N)n(N)c(=O)c2C#N)cc1 [Compound 4c]
Reply text: 15.6 µg/mL

Inquiry: # input compound: CC(=O)Oc1ccc(-c2c(C(N)=O)c(N)n(N)c(=O)c2C#N)cc1 [Compound 3e] ; wanted: its MIC
Reply text: 62.5 µg/mL

Inquiry: Please report the recorded MIC for CN(C)c1ccc(-c2c(C(N)=O)c(N)n(N)c(=O)c2C#N)cc1 [Compound 3c] .
Reply text: 31.3 µg/mL

Inquiry: # get_value(readout='MIC', item= N#Cc1c(-c2ccc(Cl)cc2Cl)c(C(N)=O)c(N)n(N)c1=O [Compound 3b] )
Reply text: 62.5 µg/mL

Inquiry: Param item = N#Cc1c(-c2ccc(OCc3ccccc3)cc2)c(C(N)=S)c(N)n(N)c1=O [Compound 4d] ; retrieve measured MIC.
Reply text: 31.3 µg/mL

Inquiry: Endpoint output: MIC of CC(=O)N1CCN(c2ccc(OCC3COC(Cn4ccnc4)(c4ccc(Cl)cc4Cl)O3)cc2)CC1 (centres unmarked) [Keto., Ketoconazole, reference compound] . Value?
Reply text: 1.95 µg/mL

Inquiry: Sample N#Cc1c(-c2ccc(Cl)cc2Cl)c(C(N)=S)c(N)n(N)c1=O [Compound 4b] — what was its MIC?
Reply text: 31.3 µg/mL

====

target: DNA gyrase A (Escherichia coli)
observable: IC50 (µM)
Enter your answer as a number in µM; do not include the unit.

Inquiry: Please look up its IC50: CC(=O)Oc1ccc(-c2c(C(N)=O)c(N)n(N)c(=O)c2C#N)cc1 [Compound 3e]
Reply text: 11.5

====

tested on: B. pumilus; assay: Broth dilution MIC/MBC; assay type: cell-based, Bacillus pumilus
observable: MBC/ MIC ratio B. pumilus
Format: numeric value only, no unit, no commentary.

Inquiry: Reported MBC/ MIC ratio B. pumilus, molecule N#Cc1c(-c2ccc(Cl)cc2Cl)c(C(N)=S)c(N)n(N)c1=O : ____
Reply text: 2

Inquiry: Dear colleague, I am looking for the recorded MBC/ MIC ratio B. pumilus of the following molecule: N#Cc1c(-c2ccc(Cl)cc2Cl)c(C(N)=O)c(N)n(N)c1=O
Reply text: 2

Inquiry: Could you share which MBC/ MIC ratio B. pumilus value was measured for CN(C)c1ccc(-c2c(C(N)=S)c(N)n(N)c(=O)c2C#N)cc1 ?
Reply text: 2

Inquiry: Consider the molecule shown here: N#Cc1c(-c2ccc(OCc3ccccc3)cc2)c(C(N)=O)c(N)n(N)c1=O What is its recorded MBC/ MIC ratio B. pumilus?
Reply text: 4

Inquiry: Record request: MBC/ MIC ratio B. pumilus value, item CN(C)c1ccc(-c2c(C(N)=O)c(N)n(N)c(=O)c2C#N)cc1
Reply text: 4

====

system: B. pumilus; assay: Broth dilution MIC/MBC; format: cell-based, Bacillus pumilus; conditions: Bacillus pumilus, read-out: MBC B. pumilus
Hi there, I'd appreciate the recorded MBC for every entry that follows.
Write it as a number; the unit µg/mL goes unstated.

Inquiry: Under B. pumilus: MBC value of N#Cc1c(-c2ccc(Cl)cc2Cl)c(C(N)=S)c(N)n(N)c1=O [Compound 4b] ?
Reply text: 62.5

Inquiry: Which MBC is reported with B. pumilus for this entry: CN(C)c1ccc(-c2c(C(N)=O)c(N)n(N)c(=O)c2C#N)cc1 [Compound 3c] ?
Reply text: 62.5

Inquiry: So what MBC did Cc1c(C(N)=S)c(N)n(N)c(=O)c1C#N [Compound 4a] get with B. pumilus?
Reply text: 125

Inquiry: What MBC appears in the records for this compound with B. pumilus? CC1(C)S[C@@H]2[C@H](NC(=O)Cc3ccccc3)C(=O)N2[C@H]1C(=O)O [Pen. G, Penicillin G, reference compound]
Reply text: 125

Inquiry: Please tell me: MBC of CN(C)c1ccc(-c2c(C(N)=S)c(N)n(N)c(=O)c2C#N)cc1 [Compound 4c] , system B. pumilus?
Reply text: 125

Inquiry: Report MBC for N#Cc1c(-c2ccc(OCc3ccccc3)cc2)c(C(N)=O)c(N)n(N)c1=O [Compound 3d] tested on B. pumilus.
Reply text: 62.5

Inquiry: Can you look up MBC on B. pumilus for N#Cc1c(-c2ccc(OCc3ccccc3)cc2)c(C(N)=S)c(N)n(N)c1=O [Compound 4d] ?
Reply text: 31.3

Inquiry: Query the reported MBC for B. pumilus; item: CC(=O)Oc1ccc(-c2c(C(N)=O)c(N)n(N)c(=O)c2C#N)cc1 [Compound 3e]
Reply text: 125

Inquiry: What reported MBC corresponds to Cc1c(C(N)=O)c(N)n(N)c(=O)c1C#N [Compound 3a] on B. pumilus?
Reply text: 125

Inquiry: Provide the documented MBC with B. pumilus as the system for N#Cc1c(-c2ccc(Cl)cc2Cl)c(C(N)=O)c(N)n(N)c1=O [Compound 3b]
Reply text: 31.3

====

system: C. albicans; assay: Broth dilution MIC/MFC; assay type: cell-based, Candida albicans; settings: Candida albicans, read-out: MFC C. albicans
Would you kindly list MFC for each of these compounds?
Write the numeric value and follow it with the unit.

Inquiry: Requested field: MFC. Item: N#Cc1c(-c2ccc(OCc3ccccc3)cc2)c(C(N)=O)c(N)n(N)c1=O [Compound 3d]
Reply text: 500 µg/mL

Inquiry: Entry under review: N#Cc1c(-c2ccc(Cl)cc2Cl)c(C(N)=O)c(N)n(N)c1=O [Compound 3b] . Reported MFC?
Reply text: 125 µg/mL

Inquiry: May I ask what MFC has been recorded for CC(=O)N1CCN(c2ccc(OCC3COC(Cn4ccnc4)(c4ccc(Cl)cc4Cl)O3)cc2)CC1 (stereo not shown) [Keto., Ketoconazole, reference compound] ?
Reply text: 31.3 µg/mL

Inquiry: Name the recorded MFC for N#Cc1c(-c2ccc(OCc3ccccc3)cc2)c(C(N)=S)c(N)n(N)c1=O [Compound 4d] .
Reply text: 125 µg/mL

Inquiry: Reported MFC, compound CN(C)c1ccc(-c2c(C(N)=S)c(N)n(N)c(=O)c2C#N)cc1 [Compound 4c] : ____
Reply text: 62.5 µg/mL

Inquiry: What value of MFC has been reported for the following compound? N#Cc1c(-c2ccc(Cl)cc2Cl)c(C(N)=S)c(N)n(N)c1=O [Compound 4b]
Reply text: 62.5 µg/mL

Inquiry: Item Cc1c(C(N)=S)c(N)n(N)c(=O)c1C#N [Compound 4a] has what recorded MFC?
Reply text: 62.5 µg/mL

Inquiry: Please look up its MFC: Cc1c(C(N)=O)c(N)n(N)c(=O)c1C#N [Compound 3a]
Reply text: 500 µg/mL

Inquiry: I have this compound here, CC(=O)Oc1ccc(-c2c(C(N)=O)c(N)n(N)c(=O)c2C#N)cc1 [Compound 3e] , and I need its recorded MFC.
Reply text: 125 µg/mL

Inquiry: Recorded MFC for CN(C)c1ccc(-c2c(C(N)=O)c(N)n(N)c(=O)c2C#N)cc1 [Compound 3c] , please?
Reply text: 125 µg/mL

====

test system: S. faecalis; experiment: Broth dilution MIC/MBC; type: cell-based, Streptococcus faecalis
Assignment: determine reported MBC/ MIC ratio S. faecalis for the given compounds.
A bare number is all that is needed in reply.

Inquiry: I'm curious: which MBC/ MIC ratio S. faecalis was measured for CC(=O)Oc1ccc(-c2c(C(N)=O)c(N)n(N)c(=O)c2C#N)cc1 tested on S. faecalis?
Reply text: 2

Inquiry: Give the reported MBC/ MIC ratio S. faecalis for CN(C)c1ccc(-c2c(C(N)=O)c(N)n(N)c(=O)c2C#N)cc1 (system: S. faecalis).
Reply text: 2

Inquiry: Quick check: MBC/ MIC ratio S. faecalis on S. faecalis, item N#Cc1c(-c2ccc(Cl)cc2Cl)c(C(N)=O)c(N)n(N)c1=O ?
Reply text: 2

Inquiry: Test system S. faecalis; read-out MBC/ MIC ratio S. faecalis; what value for N#Cc1c(-c2ccc(OCc3ccccc3)cc2)c(C(N)=O)c(N)n(N)c1=O ?
Reply text: 4

Inquiry: Record lookup: for S. faecalis, what MBC/ MIC ratio S. faecalis belongs to Cc1c(C(N)=O)c(N)n(N)c(=O)c1C#N ?
Reply text: 4

Inquiry: Given the entry Cc1c(C(N)=S)c(N)n(N)c(=O)c1C#N , what MBC/ MIC ratio S. faecalis was observed with S. faecalis?
Reply text: 4

Inquiry: What MBC/ MIC ratio S. faecalis appears in the records for this compound with S. faecalis? N#Cc1c(-c2ccc(OCc3ccccc3)cc2)c(C(N)=S)c(N)n(N)c1=O
Reply text: 2

Inquiry: Please provide the recorded MBC/ MIC ratio S. faecalis for CC1(C)S[C@@H]2[C@H](NC(=O)Cc3ccccc3)C(=O)N2[C@H]1C(=O)O [Pen. G, Penicillin G, reference compound] , tested on S. faecalis.
Reply text: 2

Inquiry: Record CN(C)c1ccc(-c2c(C(N)=S)c(N)n(N)c(=O)c2C#N)cc1 : what is its MBC/ MIC ratio S. faecalis with S. faecalis?
Reply text: 4

Numbers sourced from paper PMC11562494.
